Provide the recorded Ki for the entries that follow.
tested_system: Hepatitis C virus serine protease, NS3/NS4A (Hepatitis C virus, UniProt A3EZI9+D2K2A8)
test_description: Inhibition of wild type HCV genotype 1a NS3/4A protease expressed in Escherichia coli BL21(DE3) using Ac-DE-Dap(QXL 520)-EE-Abu-psi-[COO]AS-C(5-FAMsp)-NH2 as substrate preincubated for 1 hr followed by substrate addition
Give bare numbers, in nM.

structure_string: C=C[C@@H]1C[C@]1(NC(=O)[C@@H]1C[C@@H](Oc2nc3cc(OC)ccc3nc2C)CN1C(=O)[C@@H](NC(=O)OC1CCCC1)C(C)(C)C)C(=O)NS(=O)(=O)C1CC1
value_measured: 9.2

structure_string: C=C[C@@H]1C[C@]1(NC(=O)[C@@H]1C[C@@H](Oc2nc3cc(OC)ccc3nc2C(F)(F)F)CN1C(=O)[C@@H](NC(=O)OC1CCCC1)C(C)(C)C)C(=O)NS(=O)(=O)C1CC1
value_measured: 34

structure_string: C=C[C@@H]1C[C@]1(NC(=O)[C@@H]1C[C@@H](Oc2nc3cc(OC)ccc3nc2C(C)C)CN1C(=O)[C@@H](NC(=O)OC(C)(C)C)C(C)(C)C)C(=O)NS(=O)(=O)C1CC1
value_measured: 32

State recorded Ki for all listed molecules.
1. C=C[C@@H]1C[C@]1(NC(=O)[C@@H]1C[C@@H](Oc2nc3cc(OC)ccc3nc2C)CN1C(=O)[C@@H](NC(=O)OC1CCCC1)C(C)(C)C)C(=O)NS(=O)(=O)C1(C)CC1
2. C=C[C@@H]1C[C@]1(NC(=O)[C@@H]1C[C@@H](Oc2nc3cc(OC)ccc3nc2CC)CN1C(=O)[C@@H](NC(=O)OC1CCCC1)C(C)(C)C)C(=O)NS(=O)(=O)C1CC1

Return:
7.1
9.8
